- Assay Target: T1, P-cadherin-ECD1-3-Fc protein (human P-cadherin-Fc) (human, UniProt P22223 108-440)
- T1 construct: Construct was expressed with signal peptide and pro-peptide (PACE co-transfected to process the propeptide); not shown: hinge and CH2 and CH3 domains of human IgG1
- T1 sequence (P22223 108-440): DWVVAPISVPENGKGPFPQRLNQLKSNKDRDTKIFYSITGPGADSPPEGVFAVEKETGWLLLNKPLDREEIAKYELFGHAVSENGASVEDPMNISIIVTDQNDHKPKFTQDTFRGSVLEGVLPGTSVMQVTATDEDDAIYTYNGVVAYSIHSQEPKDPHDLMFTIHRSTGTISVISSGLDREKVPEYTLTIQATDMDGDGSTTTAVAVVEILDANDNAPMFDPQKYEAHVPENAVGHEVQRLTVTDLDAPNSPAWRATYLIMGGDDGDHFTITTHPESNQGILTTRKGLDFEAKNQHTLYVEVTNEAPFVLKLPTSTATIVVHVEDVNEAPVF
- Method: phage scFv ELISA, coated P-cadherin-ECD1-3-Fc
Quantity Kind: % of binding of Clone #153 to human P-cadherin-Fc (%)
Give the value in % but do not write % after it.

Ask: So what's the measured % of binding of Clone #153 to human P-cadherin-Fc for this one? anti-P-cadherin scFv 153 alanine-mutant L2.7-Ala (scFv, V domains shown, scFv on phage) VH: EVQLVQSGAEVKKPGASVKVSCKASGYTFTSYGISWVRQAPGQGLEWMGWISAYNGNTNYAQKLQGRVTMTTDTSTSTAYMELRSLRSDDTAVYYCATIDTANAFGIWGQGTMVTVSS VL: QSVLTQPPSVSAAPGQKVTISCSGSSSNIGNNYVSWYQQLPGTAPKLLIYDNNKRPAGIPDRFSGSKSGTSATLGITGLQTGDEADYYCGTWDSSLSGVVFGGGTKLTVL
Reply: 163

Please turn your attention to the following entry.
Ask: So what's the measured % of binding of Clone #153 to human P-cadherin-Fc for this one? anti-P-cadherin scFv 153 alanine-mutant L3.3-Ala (scFv, V domains shown, scFv on phage) VH: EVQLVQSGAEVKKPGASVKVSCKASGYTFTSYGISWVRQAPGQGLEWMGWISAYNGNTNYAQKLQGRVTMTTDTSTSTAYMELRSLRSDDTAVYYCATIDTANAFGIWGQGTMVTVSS VL: QSVLTQPPSVSAAPGQKVTISCSGSSSNIGNNYVSWYQQLPGTAPKLLIYDNNKRPSGIPDRFSGSKSGTSATLGITGLQTGDEADYYCGTADSSLSGVVFGGGTKLTVL
Reply: 14
